# experimental_protocol: Lipophilicity, logP of the compound by reversed phase column chromatography
# Type: physicochemical
observable: logP

Query: logP; subject: CNCC(=O)Nc1ccc(-c2nc(CS(C)(=O)=O)cc(N3CCOC[C@@H]3C)n2)cc1
2.6

Query: logP; subject: CS(=O)(=O)Cc1cc([C@]23CCOC[C@H]2C3)nc(-c2cccc(O)c2)n1
3.7

Query: logP; subject: Oc1cccc(-c2nccc([C@]34CCOC[C@H]3C4)n2)c1
4

Query: logP; subject: Oc1cccc(-c2nccc(N3CCOCC3)n2)c1
2.7

Query: logP; subject: CNCC(=O)Nc1ccc(-c2nc(N3CCOC[C@@H]3C)cc(C(C)(C)S(C)(=O)=O)n2)cc1
4.1

Query: logP; subject: CCNC(=O)Nc1ccc(-c2nc(CS(C)(=O)=O)cc([C@]34CCOC[C@H]3C4)n2)cc1
3.6

Query: logP; subject: CC(C)(c1cc([C@@]23CCOC[C@@H]2C3)nc(-c2cccc(O)c2)n1)S(C)(=O)=O
4.8

Query: logP; subject: CNCC(=O)Nc1ccc(-c2nc(C(C)(C)S(C)(=O)=O)cc([C@]34CCOC[C@H]3C4)n2)cc1
4.3

Query: logP; subject: Oc1cccc(-c2nccc(C3=CCOCC3)n2)c1
3.6

Query: logP; subject: CNCC(=O)Nc1ccc(-c2nc(C(C)(C)S(C)(=O)=O)cc([C@@]34CCOC[C@@H]3C4)n2)cc1
4.3

Query: logP; subject: CCNC(=O)Nc1ccc(-c2nccc(C3=CCOCC3)n2)cc1
3.6

Query: logP; subject: CC(C)(c1cc([C@]23CCOC[C@H]2C3)nc(-c2cccc(O)c2)n1)S(C)(=O)=O
4.8

Query: logP; subject: CNCC(=O)Nc1ccc(-c2nc(CS(C)(=O)=O)cc([C@@]34CCOC[C@@H]3C4)n2)cc1
3.1

Query: logP; subject: CC(C)(c1cc([C@]23CCOC[C@H]2C3)nc(-c2ccc(NC(=S)NCCO)cc2)n1)S(C)(=O)=O
3.9

Query: logP; subject: C[C@H]1COCCN1c1ccnc(-c2cccc(O)c2)n1
3.3

Query: logP; subject: Oc1cccc(-c2nccc(C34CCOCC3C4)n2)c1 (configuration not stated)
4.1

Query: logP; subject: CCNC(=O)Nc1ccc(-c2nc(N3CCOC[C@@H]3C)cc(C(C)(C)S(C)(=O)=O)n2)cc1
4.4

###

# experimental_protocol: Kinetic solubility of the compound in pH 7.4 phosphate buffered saline measured after 1 hr
# Format: physicochemical
# measurement_parameters: read-out: Kinetic_solubility
Please go through the items and note down their solubility kinetic at 1 h.
Reply with just the number (in µg/mL).

Query: solubility kinetic at 1 h; subject: CCNC(=O)Nc1ccc(-c2nccc(N3CCOC[C@@H]3C)n2)cc1
136

Query: solubility kinetic at 1 h; subject: CCNC(=O)Nc1ccc(-c2nc(CS(C)(=O)=O)cc([C@]34CCOC[C@H]3C4)n2)cc1
96

Query: solubility kinetic at 1 h; subject: CCNC(=O)Nc1ccc(-c2nccc([C@]34CCOC[C@H]3C4)n2)cc1
125

Query: solubility kinetic at 1 h; subject: CCNC(=O)Nc1ccc(-c2nccc(C34CCOCC3C4)n2)cc1 (stereo not given)
111

Query: solubility kinetic at 1 h; subject: CS(=O)(=O)Cc1cc([C@]23CCOC[C@H]2C3)nc(-c2cccc(O)c2)n1
75

Query: solubility kinetic at 1 h; subject: CNCC(=O)Nc1ccc(-c2nc(N3CCOC[C@@H]3C)cc(C(C)(C)S(C)(=O)=O)n2)cc1
198

Query: solubility kinetic at 1 h; subject: Oc1cccc(-c2nccc([C@@]34CCOC[C@@H]3C4)n2)c1
123

Query: solubility kinetic at 1 h; subject: Oc1cccc(-c2nccc([C@]34CCOC[C@H]3C4)n2)c1
141

Query: solubility kinetic at 1 h; subject: CCNC(=O)Nc1ccc(-c2nc(C(C)(C)S(C)(=O)=O)cc([C@@]34CCOC[C@@H]3C4)n2)cc1
78

Query: solubility kinetic at 1 h; subject: CC(C)(c1cc([C@@]23CCOC[C@@H]2C3)nc(-c2cccc(O)c2)n1)S(C)(=O)=O
148

Query: solubility kinetic at 1 h; subject: CCNC(=O)Nc1ccc(-c2nccc([C@@]34CCOC[C@@H]3C4)n2)cc1
127

Query: solubility kinetic at 1 h; subject: Oc1cccc(-c2nccc(C3CCOCC3)n2)c1
100

Query: solubility kinetic at 1 h; subject: CCNC(=O)Nc1ccc(-c2nc(C(C)(C)S(C)(=O)=O)cc([C@]34CCOC[C@H]3C4)n2)cc1
74

Query: solubility kinetic at 1 h; subject: CC(C)(c1cc([C@@]23CCOC[C@@H]2C3)nc(-c2ccc(NC(=S)NCCO)cc2)n1)S(C)(=O)=O
145

Query: solubility kinetic at 1 h; subject: CCNC(=O)Nc1ccc(-c2nc(CS(C)(=O)=O)cc(N3CCOC[C@@H]3C)n2)cc1
212

Query: solubility kinetic at 1 h; subject: CNCC(=O)Nc1ccc(-c2nc(CS(C)(=O)=O)cc(N3CCOC[C@@H]3C)n2)cc1
90

Query: solubility kinetic at 1 h; subject: C[C@H]1COCCN1c1cc(C(C)(C)S(C)(=O)=O)nc(-c2cccc(O)c2)n1
121

Query: solubility kinetic at 1 h; subject: CNCC(=O)Nc1ccc(-c2nc(CS(C)(=O)=O)cc([C@@]34CCOC[C@@H]3C4)n2)cc1
167

Query: solubility kinetic at 1 h; subject: CCNC(=O)Nc1ccc(-c2nccc(C3=CCOCC3)n2)cc1
24

Query: solubility kinetic at 1 h; subject: Oc1cccc(-c2nccc(C34CCOCC3C4)n2)c1 (stereo not given)
102
